Molecular target: GRK2 (Homo sapiens)
Sequence (P25098 1-689): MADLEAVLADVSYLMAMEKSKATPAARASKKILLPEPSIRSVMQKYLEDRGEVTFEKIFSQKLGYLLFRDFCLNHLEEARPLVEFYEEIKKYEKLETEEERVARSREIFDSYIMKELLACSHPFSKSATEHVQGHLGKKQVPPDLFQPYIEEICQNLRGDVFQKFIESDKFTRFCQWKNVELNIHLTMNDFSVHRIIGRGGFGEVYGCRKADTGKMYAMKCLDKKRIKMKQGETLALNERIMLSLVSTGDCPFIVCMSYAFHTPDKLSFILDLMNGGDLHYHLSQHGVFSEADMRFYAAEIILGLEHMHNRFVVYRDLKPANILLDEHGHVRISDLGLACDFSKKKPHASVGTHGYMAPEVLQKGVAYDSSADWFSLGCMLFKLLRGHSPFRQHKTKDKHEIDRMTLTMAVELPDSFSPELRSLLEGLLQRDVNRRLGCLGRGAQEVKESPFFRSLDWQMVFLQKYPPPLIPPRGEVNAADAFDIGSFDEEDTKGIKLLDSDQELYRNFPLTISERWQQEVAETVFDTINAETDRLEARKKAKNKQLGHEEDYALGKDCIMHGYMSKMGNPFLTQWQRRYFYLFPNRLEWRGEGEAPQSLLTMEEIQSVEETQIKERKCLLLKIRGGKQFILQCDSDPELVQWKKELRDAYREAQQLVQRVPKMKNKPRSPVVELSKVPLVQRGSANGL
Assay: hGRK2 LANCE Ultra In Vitro Assay
Type: biochemical
Conditions: Biological Example 1 GRK2 Lancer IC50 (μM), 10 nM GRK2; 30 or 600 μM ATP (not stated which); multiple measurements listed individually

# compound, IC50
rows = [
    ("COc1cccc(C(Cc2nnn[nH]2)N2Cc3ccc(-c4cn[nH]c4)cc3C2=O)c1 (centres unmarked) [Compound 84]", "0.167 µM"),
    ("COC(=O)NC1CCC2(C1)c1ccc(-c3cn[nH]c3)cc1C(=O)N2Cc1cccc(OC)c1 (centres unmarked) [Compound 109]", "0.006 µM"),
    ("CCOc1cccc([C@H](C(=O)OC)N2Cc3ccc(-c4cn[nH]c4)cc3C2=O)c1 [Compound 73]", "1.39 µM"),
    ("O=C1c2cc(-c3ccncn3)ccc2CN1Cc1cccc(Oc2ccccc2)c1 [Compound 106]", "0.419 µM"),
    ("COc1cccc(C(CO)N2Cc3ccc(-c4cn[nH]c4)cc3C2=O)c1 (single isomer, unassigned) [Compound 172]", "0.148 µM"),
    ("COc1cccc([C@@H](C)N2Cc3c(cc(-c4cn[nH]c4)cc3-c3cncnc3)C2=O)c1 [Compound 130]", "< 0.005 µM"),
    ("Cc1cnccc1CNC(=O)c1cccc(CN2C(=O)c3cc(-c4cn[nH]c4)ccc3C23CCCC3)c1 [Compound 134]", "0.003 µM"),
    ("COC(=O)COc1cccc(CN2Cc3ccc(-c4ccnc5[nH]ccc45)cc3C2=O)c1 [Compound 54]", "0.292 µM"),
]

----------
Biological target: GRK2 (Homo sapiens)
Assay: hGRK2 LANCE Ultra In Vitro Assay
Assay type: biochemical
Details: Biological Example 1 GRK2 Lancer IC50 (μM), 10 nM GRK2; 30 or 600 μM ATP (not stated which); multiple measurements listed individually
So basically: is IC50 under 0.01 µM? Then t. Not under? Then f.

# molecule, category
records = [
    ("COc1cccc(CN2C(=O)c3cc(-c4cn[nH]c4)ccc3C23CCCC3N)c1 (centres unmarked)", "f"),
    ("COc1cccc(CN2Cc3ccc(-n4cn[nH]c4=O)cc3C2=O)c1", "f"),
    ("COc1cccc(CN2C(=O)c3cc(-c4cn[nH]c4)ccc3C2CC#N)c1 (centres unmarked)", "t"),
    ("O=C(O)COc1cccc(CN2Cc3ccc(-c4cn[nH]c4)cc3C2=O)c1", "f"),
    ("COc1cccc(CN2Cc3ccc(-c4ccnc5[nH]ccc45)cc3C2=O)c1", "f"),
]
